Taken from patent US20080171783A1.

test system: THP-1; test: Cell viability by XTT; conditions: read-out: Activity (TC50); THP-1, six concentration dose response, Table 9
test-readout: CC50

## Input Provide THP-1 CC50 reading for Cc1ccc(NC(=O)[C@H](CCCCN)NCc2ccc(NC(=O)Nc3ccncc3)cc2)cc1 [Compound 262] .
## Output 7.9 µM

---

Items are presented alongside their recorded Percentage of Cell Control.
tested on: HCT-15; experiment: Cell viability by XTT; assay type: cell-based; conditions: HCT-15, single dose 10 μM, four days
Number only, in %; omit the unit.

Here's what some known entries look like.
{"columns": ["line-notation", "target-desc", "scale-unit", "observed-result"],
 "data": [
  ["Cc1ccc(NC(=O)[C@H](CCCCN)NCc2ccc(NC(=O)Nc3ccncc3)cc2)cc1", "HCT-15", "%", 75],
  ["Cc1ccc(NC(=O)[C@H](CCCCN)NC(=O)Cc2ccc(-c3ccccc3)cc2)cc1", "HCT-15", "%", 114.3]
]}

## Input Provide HCT-15 Percentage of Cell Control reading for `CC(C)(C)c1ccc(NC(=O)[C@H](CCCCN)NC(=O)OCC2c3ccccc3-c3ccccc32)cc1` .
## Output 85.6

## Input Provide HCT-15 Percentage of Cell Control reading for `NCCCC[C@H](NC(=O)OCC1c2ccccc2-c2ccccc21)C(=O)Nc1ccc(OCc2ccccc2)c(Cl)c1` .
## Output 71.8
